system: SR leukemia; experiment: NCI-60 one-dose screen, 48 h (100 = growth as untreated, 0 = no growth, -100 = all killed); settings: 10 µM unless noted
This is part of a sample that, as a whole, favours compounds with a hit. Of some 83,000 tested, about 20% had one in any assay.
In plain terms, low growth, meaning strictly below 90%, gives TRUE, and everything else gives FALSE.

> print(dat)
                                    compound  assigned.category
 1  CCN(CC)CCOc1ccc2c(c1)C(=O)c1cc(OCCN(CC)CC)ccc1-2              FALSE
 2  Cn1cc(-c2cc3c(Nc4ccc(CC(=O)Nc5cc(C(C)(C)C)on5)cc4)ncnc3[nH]2)cn1               TRUE
 3  CC(=O)NC(Cc1ccccc1)C(=O)Oc1ccc2ccccc2c1 (stereo unspecified)              FALSE
 4        CC1CCCC(=O)O1 (stereo unspecified)              FALSE
 5  O=C1c2c(O)cc(O)cc2OC(c2ccc(O)c(O)c2)C1O (stereo unspecified)              FALSE
 6                Clc1ccc(SSc2ccc(Cl)cc2)cc1              FALSE
 7                 c1ccc2c(CC3=NCCN3)cccc2c1              FALSE
 8  Nc1ccn(C2OC(CO)C(O)C2O)c(=O)n1 (stereo unspecified)               TRUE
 9  N/C(=N\N=C\c1ccc2c(c1)OCO2)N/N=C\c1ccc2c(c1)OCO2               TRUE
10  CC(=O)c1ccc2c(c1)N(CCCN1CCN(CCO)CC1)c1ccccc1S2               TRUE
11             CCOC(=O)C(CNc1ccccc1)C(=O)OCC              FALSE
12  CN(C)c1ccc(C(=C2C=CC(=[N+](C)C)C=C2)c2ccccc2Cl)cc1               TRUE
13  CN1CCN(CCC=C2c3ccccc3Sc3ccc(S(=O)(=O)N(C)C)cc32)CC1               TRUE
14                 O=C(O)CSCc1nc2ccccc2[nH]1              FALSE
15  NC(=O)c1ccccc1OCC(O)CO (stereo unspecified)              FALSE
16             Nc1nc(SC/C=C/CCl)c2[nH]cnc2n1               TRUE
17    N#C/C(=C1C=C/C(=N/O)C(Br)=C/1)c1ccccc1               TRUE
18                            N#CCCOc1ccccc1              FALSE
19  NS(=O)(=O)c1cc2c(cc1Cl)NC(C(Cl)Cl)NS2(=O)=O (stereo unspecified)              FALSE
20    O=c1c2ccccc2nc2n1Cc1nc3ccccc3c(=O)n1C2               TRUE
21                                  NC(=O)NO               TRUE
